Kindly find below IC50 information for High affinity nerve growth factor receptor (Homo sapiens) taken from the literature.

For orientation, consider the following solved cases.
* CCc1ccc(NC(=O)N[C@@H]2CN(CCOC)C[C@H]2c2ccc(F)c(F)c2)c(-c2ccccc2)n1 | < 100 nM
* COCCN1C[C@@H](NC(=O)Nc2c(Br)c(COC)nn2-c2ccccc2)[C@H](c2cc(F)cc(F)c2)C1 | < 100 nM
* O=S(=O)(Nc1ccc2[nH]nc(/C=C/c3ccccn3)c2c1)c1cc(F)cc(F)c1 | 1.3 nM
* COCCN1C[C@@H](NC(=O)Nc2c(C)c(Br)nn2-c2ccccc2)[C@H](c2ccc(F)c(F)c2)C1 | < 100 nM
* CN(Cc1ccc2[nH]nc(/C=C/c3ccccn3)c2c1)c1cc(F)cc(F)c1 | 45.4 nM
* O=C(c1cnc(NC2CCC(F)(F)CC2)c(F)c1)c1c[nH]c2ncnc(NC3CC3)c12 | < 10 nM
* CCOc1ccc(NC(=O)c2coc3c2C(=O)NCC3)cn1 | 4470 nM

Here is another compound to look at.
Query :: Hello, I am looking for reported IC50 with High affinity nerve growth factor receptor (Homo sapiens) for `COc1ccc(Nc2ncc(Cc3c[nH]c4ncc(C)cc34)cn2)cc1` . Could you help?
Result :: < 100 nM

====

Kindly find below pIC50 information for UniProt P04629 taken from the literature.
pIC50: −log10 of the molar value.

For orientation, consider the following solved cases.
• COc1cc(Nc2ncc(Cc3c[nH]c4ncc(C)cc34)cn2)ccc1F = > 6.00
• CCOc1nn(-c2ccccc2)c(NC(=O)N[C@@H]2CN(c3ccccc3OC)C[C@H]2c2ccc(F)c(F)c2)c1C = 6.00 to 7.00

Here is another compound to look at.
Query :: Hello, I am looking for reported pIC50 with UniProt P04629 for CC(Oc1cc(-c2ccc(C(N)=O)c(N3CCN(C(=O)C(C)(C)C)CC3)c2)cc2[nH]nc(N)c12)C(F)(F)F (stereo not shown) . Could you help?
Result :: 7.85

====

Kindly find below IC50 information for High affinity nerve growth factor receptor (Homo sapiens) taken from the literature.

For orientation, consider the following solved cases.
- CC(C)OC(=O)Nc1ccc(-c2cn3ncc4c3nc2NCc2cc(F)cnc2O[C@@H](C)CNC4=O)cc1: > 10000 nM
- CCOc1ccc(Nc2ccc(Cc3c[nH]c4ncnc(C5CC5)c34)c(F)n2)cn1: < 10 nM
- COc1cc2nccc(Oc3ccc(NC(=O)c4cn(CC(=O)O)c(=O)n(-c5ccc(F)cc5)c4=O)cc3F)c2c2c1OCCO2: < 50 nM
- COCCN1C[C@@H](NC(=O)Nc2c(C)c(-c3cnc(C)s3)nn2-c2ccccc2)[C@H](c2ccc(F)c(F)c2)C1: < 100 nM
- COc1ccc(NC(=O)c2coc3c2C(=O)NCC3)c(OC)n1: 117 nM

Query :: Hello, I am looking for reported IC50 with High affinity nerve growth factor receptor (Homo sapiens) for `COc1cc(Cn2c(N)nc3cc(-c4cnn(C)c4)cnc32)ccc1OCc1ccc(C2CC2)nc1` . Could you help?
Result :: 0.2 nM

Query :: Hello, I am looking for reported IC50 with High affinity nerve growth factor receptor (Homo sapiens) for `Cc1ccc(Nc2ccc(Cc3c[nH]c4ncc(Cl)cc34)c(F)n2)cn1` . Could you help?
Result :: < 100 nM

Query :: Hello, I am looking for reported IC50 with High affinity nerve growth factor receptor (Homo sapiens) for `Fc1ccc(Cc2ccc3[nH]nc(/C=C/c4ccccn4)c3c2)cc1F` . Could you help?
Result :: 250 nM

====

Kindly find below IC50 information for UniProtKB P04629 taken from the literature.

For orientation, consider the following solved cases.
* COc1cc2nccc(Oc3cnc(NC(=O)c4nn(C5CC5)cc(-c5ccc(F)cc5)c4=O)nc3)c2cc1OC | 13 nM
* COc1cc(CNc2ccc(Cc3c[nH]c4ncncc34)c(F)n2)cc(C(F)(F)F)c1 | ≤ 10000 nM
* C[C@@H]1CCc2ncc(F)cc2N2CC3(CC3)CN2c2ccn3ncc(c3n2)C(=O)N1 | < 100 nM
* CCCCNc1ncnc2[nH]cc(C(=O)c3ccc(Nc4ccc(CC)nc4)nc3F)c12 | < 100 nM
* COCCOc1cnc2[nH]cc(Cc3cc(F)c(OCc4nc5ccccc5[nH]4)cc3F)c2c1 | ≤ 10000 nM

Query :: Hello, I am looking for reported IC50 with UniProtKB P04629 for `COCCN1C[C@@H](NC(=O)Nc2c(C)c(-c3cnn(C)n3)nn2-c2ccccc2)[C@H](c2ccc(F)cc2)C1` . Could you help?
Result :: < 100 nM

Query :: Hello, I am looking for reported IC50 with UniProtKB P04629 for COCCN1CC(c2sc(C)nc2C)[C@H](NC(=O)Nc2c3c(nn2-c2ccccc2)CCC3)C1 (stereo partly drawn) . Could you help?
Result :: 1000 to 10000 nM

====

Kindly find below pIC50 information for High affinity nerve growth factor receptor (Homo sapiens, UniProt P04629) taken from the literature.
pIC50: −log10 of the molar value.

For orientation, consider the following solved cases.
- COCCN1C[C@@H](NC(=O)Nc2c(C)c(OC[C@@H](O)CO)nn2-c2ccccc2)[C@H](c2cc(F)c(F)c(F)c2)C1: > 7.00
- CCOc1nn(-c2ccccc2)c(NC(=O)N[C@@H]2CN(CCOC)C[C@H]2c2cc(F)cc(F)c2)c1C: > 7.00
- COCCOc1ncnc2[nH]cc(Cc3ccc(Nc4ccc(OC)nc4)nc3F)c12: > 7.00

Query :: What pIC50 value was documented for this molecule, `COCCN1C[C@@H](NC(=O)Nc2c(C)c(-c3nnc(C)o3)nn2-c2ccccc2)[C@H](c2ccc(F)c(F)c2)C1` ?
Result :: > 7.00

Query :: What pIC50 value was documented for this molecule, `CCOc1nc(N2CCN(C(C)=O)CC2)ccc1NC(=O)c1coc2c1C(=O)N(C(C)(C)CO)CC2` ?
Result :: 7.90

Query :: What pIC50 value was documented for this molecule, `COCCN1C[C@@H](NC(=O)Nc2c(C(F)(F)F)c(OC)nn2-c2ccccc2)[C@H](c2cc(F)cc(F)c2)C1` ?
Result :: > 7.00

Query :: What pIC50 value was documented for this molecule, `Cc1cc(-n2cnc3cnc(N[C@@H](C)c4ccc(F)cn4)nc32)n[nH]1` ?
Result :: 6.51

====

Kindly find below IC50 information for UniProt P04629 taken from the literature.

For orientation, consider the following solved cases.
• COCCN1C[C@@H](NC(=O)Nc2cc(-c3ccccc3)nn2C)[C@H](c2cccc(F)c2)C1 = < 100 nM
• Cc1cc(NC(=O)N[C@@H]2c3cc(F)c(F)cc3C(C)(C)C[C@H]2O)c(-c2ccccc2)nc1-c1cccc(CO)c1 (racemic) = ≤ 50 nM

Query :: What IC50 value was documented for this compound, `COCCN1C[C@@H](NC(=O)Nc2c(C)c(OCCNS(C)(=O)=O)nn2-c2ccccc2)[C@H](c2ccc(F)c(F)c2)C1` ?
Result :: < 100 nM

Query :: What IC50 value was documented for this compound, `COc1cc2nccc(Oc3cc(Cl)c(NC(=O)c4cn(C(C)C)c(=O)n(-c5ccc(F)cc5)c4=O)cc3F)c2c2c1OCCO2` ?
Result :: 50 to 500 nM

Query :: What IC50 value was documented for this compound, `COCCN1C[C@@H](NC(=S)Nc2c(C)c(-c3cnn(C)c3)nn2-c2ccccc2)[C@H](c2ccc(F)c(F)c2)C1` ?
Result :: < 100 nM

Query :: What IC50 value was documented for this compound, COCCN1C[C@@H](NC(=O)Nc2cc(-c3ccccc3)nn2C)[C@H](c2ccccc2)C1 (relative stereo) ?
Result :: < 100 nM

Query :: What IC50 value was documented for this compound, `N#Cc1cnc2ccc3nc2c1NCCCOc1ccc(F)cc1[C@H]1CCCN31` ?
Result :: < 50 nM

Query :: What IC50 value was documented for this compound, `CCn1cc(C(=O)Nc2ccc(Oc3ccnc4cc(OC)c5c(c34)OCCO5)cc2)c(=O)n(-c2ccc(F)cc2)c1=O` ?
Result :: < 50 nM

Query :: What IC50 value was documented for this compound, `Fc1cccc(Cc2ccc3[nH]nc(C#Cc4ccccn4)c3c2)c1F` ?
Result :: 72 nM

Query :: What IC50 value was documented for this compound, `Cn1cc(-c2cnc3[nH]cc(C(=O)c4cc(NS(=O)(=O)c5cccc(F)c5)ccc4F)c3c2)cn1` ?
Result :: ≤ 10000 nM

Query :: What IC50 value was documented for this compound, `CCCNc1ncnc2[nH]cc(C(=O)c3ccc(Nc4ccc(OC)nc4)nc3F)c12` ?
Result :: < 10 nM

Query :: What IC50 value was documented for this compound, `COCCN1C[C@@H](NC(=O)Nc2c(C)c(CCO)nn2-c2ccccc2)[C@H](c2ccc(F)c(F)c2)C1` ?
Result :: < 100 nM

Query :: What IC50 value was documented for this compound, CC(Oc1cc(-c2ccc(C(N)=O)c(N3CCN(c4ccccn4)CC3)c2)cc2[nH]nc(N)c12)C(F)(F)F (stereo not drawn) ?
Result :: 2.41 nM
